Parameter MIC: see the listing below.
# Tested on: Aspergillus niger
# assaySummary: Antifungal activity against Aspergillus niger assessed as reduction in fungal cell growth incubated for 72 hrs by broth microdilution method
# Format: functional
experimentalEndpoint: MIC

[[record]]
compound = "COc1ccc(N2CCN(CCc3nnnn3CC(O)(Cn3cncn3)c3ccc(F)cc3F)CC2)cc1 (configuration not stated)"
result = "0.5 to 16 µg/mL"

[[record]]
compound = "OC(Cn1cncn1)(Cn1nnc(CCN2CCN(Cc3ccccc3)CC2)n1)c1ccc(F)cc1F (configuration not stated)"
result = "1 to 16 µg/mL"

[[record]]
compound = "O=[N+]([O-])c1ccc(N2CCN(CCc3nnnn3CC(O)(Cn3cncn3)c3ccc(F)cc3F)CC2)cc1 (configuration not stated)"
result = "0.5 to 16 µg/mL"

[[record]]
compound = "OC(Cn1cncn1)(Cn1nnc(CCN2CCN(c3cccc(C(F)(F)F)c3)CC2)n1)c1ccc(F)cc1F (configuration not stated)"
result = "1 to 16 µg/mL"

[[record]]
compound = "OC(Cn1cncn1)(Cn1nnc(CCN2CCN(c3ccc(Cl)cc3)CC2)n1)c1ccc(F)cc1F (configuration not stated)"
result = "1 to 16 µg/mL"

[[record]]
compound = "C[C@H](n1nnnc1CCN1CCN(Cc2ccccc2)CC1)[C@](O)(Cn1cncn1)c1ccc(F)cc1F"
result = "0.12 to 16 µg/mL"

[[record]]
compound = "CC(n1nnc(CCN2CCN(c3ccccn3)CC2)n1)C(O)(Cn1cncn1)c1ccc(F)cc1F (configuration not stated)"
result = "1 to 16 µg/mL"

[[record]]
compound = "CC(n1nnc(CCN2CCN(C(c3ccccc3)c3ccccc3)CC2)n1)C(O)(Cn1cncn1)c1ccc(F)cc1F (configuration not stated)"
result = "1 to 16 µg/mL"

[[record]]
compound = "OC(Cn1cncn1)(Cn1nnc(CCN2CCN(c3ccccc3)CC2)n1)c1ccc(F)cc1F (configuration not stated)"
result = "1 to 16 µg/mL"

[[record]]
compound = "COc1ccc(N2CCN(CCc3nnnn3[C@@H](C)[C@](O)(Cn3cncn3)c3ccc(F)cc3F)CC2)cc1"
result = "0.12 to 16 µg/mL"

[[record]]
compound = "C[C@H](n1nnc(CCN2CCN(c3ccc(F)cc3)CC2)n1)[C@](O)(Cn1cncn1)c1ccc(F)cc1F"
result = "0.25 to 16 µg/mL"

[[record]]
compound = "CC[C@@H]([C@H](C)O)n1ncn(-c2ccc(N3CCN(c4ccc(OC[C@@H]5CO[C@@](Cn6cncn6)(c6ccc(F)cc6F)C5)cc4)CC3)cc2)c1=O"
result = "0.12 to 1 µg/mL"

[[record]]
compound = "OC(Cn1cncn1)(Cn1nnnc1CCN1CCN(c2ccccc2Cl)CC1)c1ccc(F)cc1F (configuration not stated)"
result = "0.5 to 16 µg/mL"

[[record]]
compound = "COc1ccccc1N1CCN(CCc2nnnn2[C@@H](C)[C@](O)(Cn2cncn2)c2ccc(F)cc2F)CC1"
result = "0.12 to 16 µg/mL"

[[record]]
compound = "CC(n1nnnc1CCN1CCN(c2cccc(C(F)(F)F)c2)CC1)C(O)(Cn1cncn1)c1ccc(F)cc1F (configuration not stated)"
result = "0.5 to 16 µg/mL"

[[record]]
compound = "COc1ccccc1N1CCN(CCc2nnn(C(C)C(O)(Cn3cncn3)c3ccc(F)cc3F)n2)CC1 (configuration not stated)"
result = "1 to 16 µg/mL"

[[record]]
compound = "COc1ccc(N2CCN(CCc3nnnn3C(C)C(O)(Cn3cncn3)c3ccc(F)cc3F)CC2)cc1 (configuration not stated)"
result = "0.5 to 16 µg/mL"


Just for reference, ChEMBL document CHEMBL4393657 is where these values come from.
